Hi there, I'd appreciate the recorded IC50 for every entry that follows.
# tested system: human DGKα (Homo sapiens)
# Construct: TVMV protease cleavage site (C); Hexa-His (C); made in house; host or cells: Sf9 insect cells (baculovirus, Bac-to-Bac)
# Sequence (P23743 with tags, fused parts or gaps): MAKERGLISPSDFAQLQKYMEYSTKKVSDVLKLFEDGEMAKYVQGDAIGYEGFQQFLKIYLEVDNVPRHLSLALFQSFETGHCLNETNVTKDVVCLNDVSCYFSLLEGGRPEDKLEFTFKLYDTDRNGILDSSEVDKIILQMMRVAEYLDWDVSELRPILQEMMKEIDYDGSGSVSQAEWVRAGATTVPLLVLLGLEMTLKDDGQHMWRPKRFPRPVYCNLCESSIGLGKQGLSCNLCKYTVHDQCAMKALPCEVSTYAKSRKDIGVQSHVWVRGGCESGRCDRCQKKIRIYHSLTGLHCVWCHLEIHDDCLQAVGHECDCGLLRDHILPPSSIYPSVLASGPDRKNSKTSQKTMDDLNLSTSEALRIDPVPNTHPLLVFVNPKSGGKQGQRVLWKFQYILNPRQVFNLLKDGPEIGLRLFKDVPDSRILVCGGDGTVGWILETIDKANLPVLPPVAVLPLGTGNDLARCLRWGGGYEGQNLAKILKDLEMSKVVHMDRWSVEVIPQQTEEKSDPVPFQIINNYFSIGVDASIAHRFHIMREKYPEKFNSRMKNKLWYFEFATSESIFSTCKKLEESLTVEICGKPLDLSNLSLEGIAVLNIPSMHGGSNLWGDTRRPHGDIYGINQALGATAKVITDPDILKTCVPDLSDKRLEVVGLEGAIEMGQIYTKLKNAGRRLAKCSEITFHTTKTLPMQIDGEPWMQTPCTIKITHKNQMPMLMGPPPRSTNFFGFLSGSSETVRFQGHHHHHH
# assay method text: DGKα LIPGLO assay (extruded liposome substrate), in vitro DGK inhibition
# Assay type: biochemical
# measurement setup: DGKα liposome (LIPGLO) assay; read-out: DGKa LIPGLO IC50
Answers are plain numbers, in nM.

Take a look at these entries with their results.
1) C[C@@H]1CN(c2cc(=O)n(C)c3ccc(C#N)nc23)[C@@H](C)CN1C(c1ccc(F)cc1)c1nc(C(C)(C)C)no1 (stereo partly drawn) ... 1100
2) C[C@@H]1CN(c2c(C#N)c(=O)n(C)c3ccc(C#N)nc23)[C@@H](C)CN1C(c1ccc(F)cc1)c1ccc(C#N)cc1 (single isomer, unassigned) [Example 824] ... 16000
3) C[C@@H]1CN(c2c(C#N)c(=O)n(C)c3ccc(C#N)nc23)CCN1C(c1ccc(F)cc1)c1cnccn1 (stereo partly drawn) ... 1100
4) C[C@@H]1CN(c2c(C#N)c(=O)n(C)c3ccc(C#N)nc23)CCN1C(c1ccc(F)cc1)c1cccc2c1OC(C)(C)C2 (single isomer, unassigned) [Example 935] ... 1900

[in] Entry `Cc1ccc(C(c2ccc(C)cc2)N2C[C@H](C)N(c3c(C#N)c(=O)n(C)c4ccc(C#N)nc34)C[C@H]2C)cc1` has what IC50?
[out] 6300
